FYI, the data here is from patent US20230095836A1.

Tested on: Blumeria graminis f. sp. tritici
Assay: Test C: test suspension sprayed on wheat seedlings, inoculated next day with Blumeria graminis f. sp. tritici (wheat powdery mildew); visual disease rating (100 = 100% disease control, 0 = no control; dash = not tested)
Type: in vivo
Settings: 50 ppm
Answer each item with its documented Test C disease control rating.
Report as a plain number; the unit % is understood.

Can you look up the measured Test C disease control rating of Cn1nc(-c2ccccc2F)c(-c2ccc(F)cc2Cl)c(Cl)c1=O [Compound 72] for me? 99

Fill blank: measured Test C disease control rating of the molecule Cn1nc(-c2cccc(F)c2F)c(-c2ccc(F)cc2Cl)c(Cl)c1=O [Compound 107] is ____. 100

Looking for the measured Test C disease control rating of COc1c(-c2ccc(F)cc2Cl)c(-c2cccc(F)c2F)nn(C)c1=O [Compound 116] , can you help? 99

Name the reported Test C disease control rating value associated with the molecule COc1cc(F)c(-c2c(-c3cc(OC)ccc3Cl)nn(C)c(=O)c2Cl)c(F)c1 [Compound 96] 97

Any idea what its Test C disease control rating is? The molecule is COc1c(-c2ccc(F)cc2Cl)c(-c2cccc(F)c2Cl)nn(C)c1=O [Compound 154] 100

What value of measured Test C disease control rating is listed for COc1ccc(Cl)c(-c2nn(C)c(=O)c(Cl)c2-c2ccccc2)c1 [Compound 95] ? 97

What value of Test C disease control rating has been reported for the following molecule? CCn1nc(-c2cc(OC)cc(OC)c2Br)c(-c2c(F)cccc2F)cc1=O [Compound 17] 94

Would you kindly share the measured Test C disease control rating for COc1cc(C#N)cc(-c2nn(C)c(=O)cc2-c2c(F)cccc2F)c1 [Compound 71] ? 0

For the molecule shown here, CCn1nc(-c2cc(OC)cc(OC)c2Br)c(-c2c(F)cccc2F)c(Br)c1=O [Compound 16] , give the reported Test C disease control rating. 97
